tested on: Trichophyton mentagrophytes; test: Antifungal activity against Trichophyton mentagrophytes by broth microdilution method; assay type: functional, organism-based; conditions: read-out: IC50
Observation type: IC50 (µM)

                                   compound  measurement_unit  measurement
0  COc1ccc(CN(CC(OS(=O)(=O)c2ccc(F)cc2)c2ccccc2)C(=O)OC(C)(C)C)cc1 (configuration not stated)                µM         2.76

a = CC(C)c1cc(C(C)C)c(S(=O)(=O)OC(CN(Cc2ccccc2)C(=O)OC(C)(C)C)c2ccccc2)c(C(C)C)c1 (configuration not stated)
b = CC(C)(C)OC(=O)N(Cc1ccccc1)CC(OS(=O)(=O)c1cccc(Cl)c1Cl)c1ccccc1 (configuration not stated)
Which value of IC50 is greater, the one for a or the one for b ? Which one? Tell me its label.
a
(a: 6.11 µM, b: 0.33 µM)

P = COc1ccc(C(CN(Cc2ccccc2)C(=O)OC(C)(C)C)OS(=O)(=O)c2c(Cl)cccc2Cl)cc1 (configuration not stated)
Q = CC(C)(C)OC(=O)N(Cc1ccc(F)cc1)CC(OS(=O)(=O)c1cccc(Cl)c1Cl)c1ccccc1 (configuration not stated)
Which value of IC50 is greater, the one for P or the one for Q ? Which one? Tell me its label.
P
(P: 13.5 µM, Q: 0.53 µM)

----------
tested on: Trichophyton mentagrophytes; test: Antifungal activity against Trichophyton mentagrophytes by broth microdilution method; assay type: functional, organism-based; conditions: read-out: pIC50 (converted)
Observation type: IC50 (µM)

Example cases with answers are listed next.
In [3]: df
Out[3]:
                                   compound                system_tested  observation_type  measurement
0  Cc1ccc(S(=O)(=O)OC(CN(Cc2ccccc2)C(=O)OC(C)(C)C)c2ccccc2)cc1 (centres undefined)  Trichophyton mentagrophytes              IC50         11.7
1  O=S(=O)(OC(CNCc1ccccc1)c1ccccc1)c1cccc(Cl)c1Cl (centres undefined)  Trichophyton mentagrophytes              IC50         5.89
2  COc1ccc(C(CN(Cc2ccccc2)C(=O)OC(C)(C)C)OS(=O)(=O)c2ccc(F)cc2)cc1 (centres undefined)  Trichophyton mentagrophytes              IC50         22.9
3  CC(C)(C)OC(=O)N(Cc1ccccc1)CC(OS(=O)(=O)c1cccc2ccccc12)c1ccccc1 (centres undefined)  Trichophyton mentagrophytes              IC50         5.48
4  CC(C)(C)OC(=O)N(Cc1ccccc1)CC(OS(=O)(=O)c1ccccc1C(F)(F)F)c1ccccc1 (centres undefined)  Trichophyton mentagrophytes              IC50         24.4

a = COc1ccc(CN(CC(OS(=O)(=O)c2cccc([N+](=O)[O-])c2)c2ccccc2)C(=O)OC(C)(C)C)cc1 (centres undefined)
b = Cc1ccc(C(CN(Cc2ccccc2)C(=O)OC(C)(C)C)OS(=O)(=O)c2c(Cl)cccc2Cl)cc1 (centres undefined)
c = COc1ccc(C(CN(Cc2ccccc2)C(=O)OC(C)(C)C)OS(=O)(=O)c2cccc(Cl)c2Cl)cc1 (centres undefined)
Please list these compounds in decreasing order of IC50. Lab note: record answer as labels in requested order.
c, b, a
(c: 14.9 µM, b: 4.4 µM, a: 2.24 µM)

Reference source: ChEMBL document CHEMBL1909528
